Value source: PubChem BioAssay AID1942

biological target: Potassium voltage-gated channel subfamily KQT member 2 (Rattus norvegicus); assay: KCNQ2 potentiation in CHO cells – cell-based, FluxOR thallium flux, counter-screen for hERG block protector project, confirmation (AID 1942); settings: FluxOR thallium flux fluorescence, at 10 µM;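 further: normalized value minus buffer-control mean plus three SD of buffer wells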
The campaign covered roughly 2,400 compounds. About 580 (24%) were called active.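 How the source made its calls: active means activity change at or above the mean plus 3 SD of buffer wells without dofetilide, per plate; inactive means the rest.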 A selection follows.
Write down one outcome, taken from active, inactive

Dear colleague, could you share the recorded outcome for `Cc1c(C)n(CCN(C)C)c2ccc(C(=O)OCCN(C)C)cc12` when you have a moment?
inactive

Dear colleague, could you share the recorded outcome for `CCc1nnc(NC(=O)CSc2nc(-c3ccccc3)cc(-c3ccc(OC)cc3)c2C#N)s1` when you have a moment?
inactive

Dear colleague, could you share the recorded outcome for `O=C(N/N=C/c1cccs1)C(=O)Nc1cccc(Cl)c1` when you have a moment?
inactive

Dear colleague, could you share the recorded outcome for `O=C(NC(=S)N1CCN(C/C=C/c2ccccc2)CC1)c1ccc(Cl)nc1` when you have a moment?
active

====

target: Potassium voltage-gated channel subfamily KQT member 2 (Rattus norvegicus) (UniProt O88943); assay: KCNQ2 potentiation in CHO cells – cell-based, FluxOR thallium flux, counter-screen for hERG block protector project, confirmation (AID 1942); details: FluxOR thallium flux fluorescence, at 10 µM, hits give high values;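 further: normalized value minus buffer-control mean plus three SD of buffer wells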
Sequence (O88943 whole entry, looked up): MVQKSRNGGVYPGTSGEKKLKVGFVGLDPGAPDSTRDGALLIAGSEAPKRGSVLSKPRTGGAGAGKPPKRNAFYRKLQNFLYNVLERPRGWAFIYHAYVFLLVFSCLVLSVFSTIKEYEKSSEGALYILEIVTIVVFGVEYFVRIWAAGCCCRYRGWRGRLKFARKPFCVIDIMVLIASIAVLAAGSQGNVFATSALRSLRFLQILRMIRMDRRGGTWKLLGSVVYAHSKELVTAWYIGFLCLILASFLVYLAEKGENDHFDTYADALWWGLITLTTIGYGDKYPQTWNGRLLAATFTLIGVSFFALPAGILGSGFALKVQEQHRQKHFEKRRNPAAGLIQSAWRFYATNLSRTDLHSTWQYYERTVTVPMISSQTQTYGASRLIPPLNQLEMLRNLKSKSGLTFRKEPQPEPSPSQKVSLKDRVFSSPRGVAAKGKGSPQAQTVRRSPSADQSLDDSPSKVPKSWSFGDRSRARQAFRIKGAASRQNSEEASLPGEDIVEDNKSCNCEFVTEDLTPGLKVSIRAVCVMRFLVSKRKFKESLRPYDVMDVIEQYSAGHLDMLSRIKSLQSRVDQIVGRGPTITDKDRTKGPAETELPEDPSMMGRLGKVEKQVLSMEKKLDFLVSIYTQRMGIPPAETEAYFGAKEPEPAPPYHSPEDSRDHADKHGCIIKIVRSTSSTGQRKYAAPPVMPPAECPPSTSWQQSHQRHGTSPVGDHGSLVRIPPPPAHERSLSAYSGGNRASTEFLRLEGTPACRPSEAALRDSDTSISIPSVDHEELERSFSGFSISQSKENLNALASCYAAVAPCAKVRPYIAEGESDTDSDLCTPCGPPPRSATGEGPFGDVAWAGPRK
Among all 2,400 compounds or so, about 580 (24%) were called active. The list is a sample of the results.
PARAMETER MEASURED: activity change, less the hit threshold (%)
Quick reminder: number only, in %, skip the unit.

// activity change, less the hit threshold value for `Cc1c(C(=O)NNC(=O)c2ccncc2)oc2ccc(Br)cc12` : -16.1

// activity change, less the hit threshold value for `CCN(Cc1ccccc1)C(=S)NC(=O)c1ccccc1Br` : 66.7

// activity change, less the hit threshold value for O=C(NCC1CCS(=O)(=O)C1)Oc1ccccc1 (stereo unspecified) : -12.4

// activity change, less the hit threshold value for `S=C(NCc1ccccc1)NCc1ccccc1Cl` : -23.7

// activity change, less the hit threshold value for `CSc1nsc(SCC(=O)Nc2ccccc2C(=O)O)n1` : -13

// activity change, less the hit threshold value for `COCC(=O)Nc1cc(C)cn(Cc2c(F)cccc2Cl)c1=O` : -15.1

// activity change, less the hit threshold value for `COCCN(C(=O)CSc1nnc(C)n1Cc1ccccc1)c1c(N)n(CC(C)C)c(=O)[nH]c1=O` : -21.8

// activity change, less the hit threshold value for `Oc1ccc(Br)cc1-c1n[nH]c(=S)n1Cc1ccccc1` : -4.7

// activity change, less the hit threshold value for COc1ccc(-c2cnn(C3CCS(=O)(=O)C3)c2N)cc1 (stereo unspecified) : -16.8

// activity change, less the hit threshold value for `c1cnc2c(Oc3ncnc4sccc34)cccc2c1` : -17

// activity change, less the hit threshold value for `NC(=O)C1CCN(C(=O)CCC(=O)c2ccc(F)cc2)CC1` : -12.6

// activity change, less the hit threshold value for `CCCn1c(=S)[nH]c2sc3c(c2c1=O)CCCC3` : 72

// activity change, less the hit threshold value for `CC(C)Cn1c(=S)[nH]c2cc(Cl)ccc21` : 6.5

// activity change, less the hit threshold value for `Cc1ccc(C(=O)NC(=S)Nc2ccccc2C(F)(F)F)cc1` : -24.5

// activity change, less the hit threshold value for `CCc1ccc(NC(=S)NC(=O)c2c(-c3ccccc3Cl)noc2C)cc1` : -17.1

// activity change, less the hit threshold value for `CCC(=O)NC(=S)NNC(=O)c1ccccc1[N+](=O)[O-]` : -19.6

// activity change, less the hit threshold value for `COc1ccc(Cc2c(O)nc(SCC(C)C)[nH]c2=O)cc1` : -20.7

// activity change, less the hit threshold value for `CCN(c1ccccc1)S(=O)(=O)c1ccc(NC(=S)NC(=O)c2ccc(Br)o2)cc1` : 0.3

// activity change, less the hit threshold value for `Cc1cccc(NC(=S)NC(=O)c2ccc(Br)o2)c1` : 46.1

// activity change, less the hit threshold value for `Cc1nonc1CN(C)C(=O)c1ccc(OC2CCN(Cc3ccccn3)CC2)cc1` : -5.7

// activity change, less the hit threshold value for `O=c1ccn(Cc2ccc(F)cc2)c2ccnc(C(F)(F)F)c12` : -16.3

// activity change, less the hit threshold value for `O=c1c2cc(Cl)ccc2[nH]c(=S)n1Cc1cccs1` : -11.7

// activity change, less the hit threshold value for `COC(=O)n1c(=S)oc2cc(Cl)ccc21` : -10

// activity change, less the hit threshold value for `CCOc1ccc(-n2c(C)c(C(C)=O)c3cc(O)ccc32)cc1` : -2.3

// activity change, less the hit threshold value for `CCN(C(=S)NC(=O)c1ccccc1Br)C1CCCCC1` : 62.1

// activity change, less the hit threshold value for CCOC(=O)C1=C(N)Oc2cc(O)ccc2C1c1cccnc1 (stereo unspecified) : -24.7

// activity change, less the hit threshold value for `C[n+]1ccccc1/C=C/c1c(F)cccc1F` : -10.9

// activity change, less the hit threshold value for `CCCCCCc1cc2cc(-c3nnc(-c4ccccc4)o3)c(=O)oc2cc1O` : -23.8

// activity change, less the hit threshold value for `C=C(C)CSc1nnc2[nH]c(=O)cc(N)n12` : -18.3

// activity change, less the hit threshold value for `O=C(NC(=S)N(Cc1ccccc1)Cc1ccccc1)c1ccccc1F` : 38.8

// activity change, less the hit threshold value for Cc1c(OC(C(=O)O)c2ccccc2)ccc2c(-c3ccccc3)cc(=O)oc12 (stereo unspecified) : -7

// activity change, less the hit threshold value for `COc1cccc(C(=O)NNC(=O)C(=O)Nc2ccc(C)cc2)c1` : 78.3

// activity change, less the hit threshold value for COC(=O)c1ccc(NC(=O)COC(=O)C2CC(=O)N(Cc3ccccc3)C2)cc1 (stereo unspecified) : -26.7

// activity change, less the hit threshold value for `CCN1CCN(C(=O)c2ccc(Cn3c(=O)[nH]c4cc(OC)c(OC)cc4c3=O)cc2)CC1` : -7.7

// activity change, less the hit threshold value for `COc1nccnc1NS(=O)(=O)c1ccc(NC(=S)NC(=O)c2ccccc2F)cc1` : -13.5

// activity change, less the hit threshold value for `Oc1c(Cl)cc(Cl)cc1/C=N/c1nccs1` : 32.3
